The measured values listed here are drawn from patent US7741493B2.

Biological target: P2X7 (Homo sapiens)
Sequence (Q99572 1-595): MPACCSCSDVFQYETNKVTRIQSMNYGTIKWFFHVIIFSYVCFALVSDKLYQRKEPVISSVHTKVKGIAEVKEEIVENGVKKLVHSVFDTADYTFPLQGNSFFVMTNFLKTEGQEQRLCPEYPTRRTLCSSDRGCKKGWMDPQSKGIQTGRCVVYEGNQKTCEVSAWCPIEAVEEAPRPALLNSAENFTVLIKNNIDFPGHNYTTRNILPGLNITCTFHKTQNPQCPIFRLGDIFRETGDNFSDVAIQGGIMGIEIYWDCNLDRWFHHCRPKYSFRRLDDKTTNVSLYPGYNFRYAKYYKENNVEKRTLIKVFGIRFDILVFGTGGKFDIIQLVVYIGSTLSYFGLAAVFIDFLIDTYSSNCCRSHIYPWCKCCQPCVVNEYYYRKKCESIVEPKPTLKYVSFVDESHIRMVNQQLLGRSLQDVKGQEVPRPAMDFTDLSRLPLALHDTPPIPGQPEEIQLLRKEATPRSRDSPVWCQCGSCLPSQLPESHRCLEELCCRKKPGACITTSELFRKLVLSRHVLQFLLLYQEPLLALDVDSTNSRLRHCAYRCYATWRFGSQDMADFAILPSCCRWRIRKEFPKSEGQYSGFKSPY
Test: YO-PRO-1 dye uptake assay in U373 cells stably expressing P2X7
Assay type: cell-based
Parameters: The complete open reading frame of human P2X7 was amplified from Incyte clone 148057; expressed in transfected cells
Details: dye uptake through P2X7, U373 cells, 300 μM BzATP, 5 μM YO-PRO-1, test compounds 30 nM to 3 μM; read-out: IC50
Where a name gives a salt, the structure may show the parent alone.
QUANTITY: IC50 (nM)

- COMPOUND: "Fc1ccc([C@H]2NC(NCc3ccccc3)=N[C@H]2c2ccc(F)cc2)cc1 [hydrochloride]"
  SYSTEM UNDER TEST: "P2X7 (Homo sapiens)"
  QUANTITY: "IC50"
  RECORDED NUMBER: 371
- COMPOUND: "Fc1ccc(CNC2=N[C@@H](c3ccccc3)[C@@H](c3ccccc3)N2)c(F)c1"
  SYSTEM UNDER TEST: "P2X7 (Homo sapiens)"
  QUANTITY: "IC50"
  RECORDED NUMBER: 289
- COMPOUND: "Fc1ccc(CNC2=N[C@@H](c3ccccc3F)[C@@H](c3ccccc3F)N2)cc1 [hydrochloride]"
  SYSTEM UNDER TEST: "P2X7 (Homo sapiens)"
  QUANTITY: "IC50"
  RECORDED NUMBER: 390
- COMPOUND: "Fc1c(Cl)cccc1CC1=N[C@@H](c2ccccc2)[C@@H](c2ccccc2)N1 [trifluoroacetate]"
  SYSTEM UNDER TEST: "P2X7 (Homo sapiens)"
  QUANTITY: "IC50"
  RECORDED NUMBER: 142
- COMPOUND: "Fc1ccc(CCC2=N[C@H](c3ccccc3)[C@H](c3ccccc3)N2)cc1F"
  SYSTEM UNDER TEST: "P2X7 (Homo sapiens)"
  QUANTITY: "IC50"
  RECORDED NUMBER: 122
- COMPOUND: "Cc1ccc(CC2=N[C@@H](c3ccccc3)[C@@H](c3ccccc3)N2)cc1F [trifluoroacetate]"
  SYSTEM UNDER TEST: "P2X7 (Homo sapiens)"
  QUANTITY: "IC50"
  RECORDED NUMBER: 178
- COMPOUND: "OC(C1=N[C@@H](c2ccccc2)[C@@H](c2ccccc2)N1)c1ccccc1 (some centres unmarked)"
  SYSTEM UNDER TEST: "P2X7 (Homo sapiens)"
  QUANTITY: "IC50"
  RECORDED NUMBER: 241
- COMPOUND: "Cc1ccc(F)c(CC2=N[C@@H](c3ccccc3)[C@@H](c3ccccc3)N2)c1F [trifluoroacetate]"
  SYSTEM UNDER TEST: "P2X7 (Homo sapiens)"
  QUANTITY: "IC50"
  RECORDED NUMBER: 594
- COMPOUND: "Cc1ccccc1CCC1=N[C@@H](c2cccc(F)c2)[C@@H](c2cccc(F)c2)N1 [trifluoroacetate]"
  SYSTEM UNDER TEST: "P2X7 (Homo sapiens)"
  QUANTITY: "IC50"
  RECORDED NUMBER: 94
- COMPOUND: "C[C@]1(c2ccccc2)N=C(Cc2ccc(F)cc2F)N[C@H]1c1ccccc1 (relative stereo) [trifluoroacetate]"
  SYSTEM UNDER TEST: "P2X7 (Homo sapiens)"
  QUANTITY: "IC50"
  RECORDED NUMBER: 16
- COMPOUND: "C[C@@]1(c2cccc(F)c2)N=C(NCc2ccc(F)cc2)N[C@@H]1c1cccc(F)c1"
  SYSTEM UNDER TEST: "P2X7 (Homo sapiens)"
  QUANTITY: "IC50"
  RECORDED NUMBER: 37
- COMPOUND: "C[C@@]1(c2ccccc2)N=C(NCc2ccc(F)cc2)N[C@@H]1c1ccccc1 (relative stereo) [hydrochloride]"
  SYSTEM UNDER TEST: "P2X7 (Homo sapiens)"
  QUANTITY: "IC50"
  RECORDED NUMBER: 63
- COMPOUND: "Clc1ccccc1CNC1=N[C@@H](c2ccccc2)[C@@H](c2ccccc2)N1"
  SYSTEM UNDER TEST: "P2X7 (Homo sapiens)"
  QUANTITY: "IC50"
  RECORDED NUMBER: 587
- COMPOUND: "Fc1ccc(CNC2=N[C@@H](c3ccccc3Cl)[C@@H](c3ccccc3Cl)N2)cc1 [hydrochloride]"
  SYSTEM UNDER TEST: "P2X7 (Homo sapiens)"
  QUANTITY: "IC50"
  RECORDED NUMBER: 624
- COMPOUND: "FC(F)(F)c1ccc(CC2=N[C@@H](c3ccccc3)[C@@H](c3ccccc3)N2)cc1 [trifluoroacetate]"
  SYSTEM UNDER TEST: "P2X7 (Homo sapiens)"
  QUANTITY: "IC50"
  RECORDED NUMBER: 403
- COMPOUND: "Cc1ccc(F)cc1CC1=N[C@@H](c2ccccc2)[C@@H](c2ccccc2)N1 [trifluoroacetate]"
  SYSTEM UNDER TEST: "P2X7 (Homo sapiens)"
  QUANTITY: "IC50"
  RECORDED NUMBER: 319
- COMPOUND: "Fc1ccc(CNC2=N[C@@H](c3ccccc3Br)[C@@H](c3ccccc3Br)N2)cc1 [hydrochloride]"
  SYSTEM UNDER TEST: "P2X7 (Homo sapiens)"
  QUANTITY: "IC50"
  RECORDED NUMBER: 898
